Peptide text beside a SMILES is read from it.
Assignment: determine reported Kd for the given compounds.

Ask: Hello, I am looking for reported Kd with ITSN1-1 SH3 domain (aa 740-806) (Homo sapiens) for CC[C@H](C)[C@H](NC(=O)[C@H](Cc1c[nH]cn1)NC(=O)[C@@H](N)CCC(N)=O)C(=O)N1CCC[C@H]1C(=O)N[C@@H](CCCCN)C(=O)N[C@@H](CC(C)C)C(=O)N1CCC[C@H]1C(=O)N1CCC[C@H]1C(=O)N[C@@H](CCCCN)C(=O)N[C@H](C(=O)N[C@@H](Cc1ccc(O)cc1)C(=O)O)[C@@H](C)O [Peptide P10] (H-QHIPKLPPKTY-OH; N-terminus and C-terminus assumed) . Could you help?
Reply: > 200 µM

Ask: Hello, I am looking for reported Kd with ITSN1-1 SH3 domain (aa 740-806) (Homo sapiens) for CC(C)C[C@H](NC(=O)[C@@H](NC(=O)[C@@H](N)C(C)C)[C@@H](C)O)C(=O)N1CCC[C@H]1C(=O)N[C@@H](Cc1c[nH]cn1)C(=O)NCC(=O)N1CCC[C@H]1C(=O)N[C@@H](CCCNC(=N)N)C(=O)N[C@@H](CO)C(=O)N[C@@H](C)C(=O)O [Peptide P2] (H-VTLPHGPRSA-OH) . Could you help?
Reply: > 200 µM

Ask: Hello, I am looking for reported Kd with ITSN1-1 SH3 domain (aa 740-806) (Homo sapiens) for CC(C)[C@H](N)C(=O)N1CCC[C@H]1C(=O)N[C@H](C(=O)N1CCC[C@H]1C(=O)N1CCC[C@H]1C(=O)N1CCC[C@H]1C(=O)N[C@H](C(=O)N1CCC[C@H]1C(=O)N1CCC[C@H]1C(=O)N[C@@H](CCCNC(=N)N)C(=O)N[C@@H](CCCNC(=N)N)C(=O)N[C@@H](CCCNC(=N)N)C(=O)O)C(C)C)C(C)C [RP1, reference compound] . Could you help?
Reply: 39 µM

Ask: Hello, I am looking for reported Kd with ITSN1-1 SH3 domain (aa 740-806) (Homo sapiens) for CC(C)C[C@H](NC(=O)[C@H](Cc1c[nH]cn1)NC(=O)[C@H](CC(C)C)NC(=O)[C@@H]1CCCN1C(=O)[C@H](CO)NC(=O)[C@H](CO)NC(=O)[C@@H](N)CO)C(=O)N[C@@H](CCC(N)=O)C(=O)N1CCC[C@H]1C(=O)N1CCC[C@H]1C(=O)N1CCC[C@H]1C(=O)N[C@@H](CC(C)C)C(=O)NCC(=O)N[C@@H](CCCCN)C(=O)N[C@@H](CCCCN)C(=O)O [Peptide P6] (H-SSSPLHLQPPPLGKK-OH; N-terminus and C-terminus assumed) . Could you help?
Reply: > 200 µM

Ask: Hello, I am looking for reported Kd with ITSN1-1 SH3 domain (aa 740-806) (Homo sapiens) for CC(C)C[C@H](NC(=O)[C@@H]1CCCN1C(=O)[C@@H](NC(=O)[C@H](CCCNC(=N)N)NC(=O)[C@@H]1CCCN1C(=O)[C@H](CO)NC(=O)[C@H](CC(N)=O)NC(=O)[C@@H]1CCCN1C(=O)[C@H](C)NC(=O)[C@@H](N)CO)[C@@H](C)O)C(=O)N[C@H](C(=O)N1CCC[C@H]1C(=O)N1CCC[C@H]1C(=O)N1CCC[C@H]1C(=O)N[C@@H](C)C(=O)N[C@@H](CO)C(=O)O)[C@@H](C)O [Peptide P1] (H-SAPNSPRTPLTPPPAS-OH) . Could you help?
Reply: > 200 µM

Ask: Hello, I am looking for reported Kd with ITSN1-1 SH3 domain (aa 740-806) (Homo sapiens) for CC[C@H](C)[C@H](N)C(=O)N[C@@H](C)C(=O)NCC(=O)N1CCC[C@H]1C(=O)N1CCC[C@H]1C(=O)N[C@H](C(=O)N1CCC[C@H]1C(=O)N1CCC[C@H]1C(=O)N[C@@H](CCCNC(=N)N)C(=O)N[C@@H](CCC(N)=O)C(=O)N[C@@H](CO)C(=O)O)C(C)C [Peptide P9] (H-IAGPPVPPRQS-OH) . Could you help?
Reply: > 200 µM

Ask: Hello, I am looking for reported Kd with ITSN1-1 SH3 domain (aa 740-806) (Homo sapiens) for CC[C@H](C)[C@H](NC(=O)[C@H](C)NC(=O)[C@@H]1CCCN1C(=O)[C@@H]1CCCN1C(=O)[C@H](CO)NC(=O)[C@H](CC(=O)O)NC(=O)[C@@H](N)CC(C)C)C(=O)N1CCC[C@H]1C(=O)N1CCC[C@H]1C(=O)N[C@@H](CCCNC(=N)N)C(=O)N[C@@H](CCC(N)=O)C(=O)N1CCC[C@H]1C(=O)N[C@H](C(=O)N[C@@H](CO)C(=O)N[C@@H](CCCCN)C(=O)O)[C@@H](C)O [Peptide P4] (H-LDSPPAIPPRQPTSK-OH) . Could you help?
Reply: 6.6 µM
